Assay Remarks: basal HepG2 mitochondrial membrane potential changes, profiling panel, cell-based, JC-1 fluorescence, 24 h, 100 nL compound (AID 1167); further: test concentration not given here
Condition Info: higher = more signal
Reported Metric: z-score

Chemical Structure	Reported Metric	Reading
CN(C)C(=O)[C@@]1(Cc2ccccc2CN=[N+]=[N-])N=C(c2ccc(OCCCO)cc2)O[C@H]1c1ccccc1	z-score	-0.807
COCCCNC(=O)[C@@]1(Cc2ccccc2)N=C(c2ccc(OCCCO)cc2)O[C@H]1c1ccccc1	z-score	0.00935
CN(C)C(=O)[C@]1(Cc2ccccc2CN=[N+]=[N-])N=C(c2ccc(OCCCO)cc2)O[C@@H]1c1ccccc1CN=[N+]=[N-]	z-score	0.644
CC(C)(C)OC(=O)CC[C@]1(C(=O)O)N=C(c2ccc(OCCCO)cc2)O[C@H]1c1ccccc1N=[N+]=[N-]	z-score	-2.45

---

Assay Remarks: HepG2 liver cancer cell viability effects, profiling panel, resazurin fluorescence, 24 h, PK04 Diversity Set (AID 1172); further: test concentration not given here
Condition Info: higher = more signal
Collected z-score values appear next to each entry.
Reported Metric: z-score

Compound	Reading
COc1ccc(C(=O)O[C@H]2CC[C@]3(C)C4=C(CCC3C2(C)C)[C@]2(C)CC[C@H]([C@H](C)CCCC(C)C)[C@@]2(C)CC4)cc1 (stereo partly drawn)	1.09
COc1ccc([C@H]2C[C@H]3C(Br)=C[C@@H]2C(=O)[C@]32CO2)cc1	0.158
CCOC(=O)[C@H]1C/C=C/C[C@H](C(=O)OCC)C(=O)O[C@H]2[C@@H](OC)O[C@H](CO)[C@@H](OC(=O)Nc3cccc(F)c3)[C@@H]2OC1=O	-5.49
C=C(CCCC)C(=O)CC[C@@H](OC(=O)c1cccnc1)c1ccc(CO)o1	0.154
CCOc1cc(C(O)C2C=CC3C(=O)N(c4ccccc4)C(=O)C3N2Nc2ccccc2)ccc1O (stereo not drawn)	-0.147
COc1cc2c(cc1O)C(C1CC1)N(Cc1cc3c(cc1Br)OCO3)CC2 (stereo not drawn)	-1.94
C=CCOC(=O)[C@@H]1[C@H]2C(=O)O[C@H](c3ccccc3)[C@H](c3ccccc3)N2[C@H](c2ccc(OCCOC(=O)[C@@H]3C[C@@H]4C(=O)N[C@@H](CCCC[N+](C)(C)C)C(=O)N4[C@@H]3c3cccc(OCCO)c3)cc2)[C@@]12C(=O)Nc1ccc(I)cc12	1.34
CC(C)C[C@@H]1NC(=O)[C@H]2C[C@@H](C(=O)NCCCCCCN)[C@@H](c3ccc(O)cc3)N2C1=O	-0.632
CCN(CC)c1ccc(N2CC=CC34O[C@@H]5/C=C\CCCOC(=O)C5[C@H]3C(=O)N(CCO)[C@@H]4C2=O)cc1 (stereo partly drawn)	-1.46
O=C1c2ccccc2[C@](Cc2ccccc2I)(C(=O)NC2CC2)[C@H](c2ccc(CO)cc2)N1C1CCCCC1	-0.13
COCCOC(=O)N1C(=O)[C@@]2(c3cc(C#CCCO)ccc31)[C@H](C(=O)N1CCc3cc(OC)c(OC)cc3C1)[C@H]1C(=O)O[C@H](c3ccccc3)[C@H](c3ccccc3)N1[C@@H]2c1ccc(O)cc1	0.0444
COC(=O)[C@@]1(Cc2ccc(F)cc2)[C@H]2c3cc(C(=O)N(C)C)n(Cc4ccc(S(C)(=O)=O)cc4)c3C[C@H]2CN1C(=O)c1ccccc1	-0.304
COCCOC(=O)N1C(=O)[C@@]2(c3cc(C#Cc4ccc(OC)cc4)ccc31)[C@H](C(N)=O)[C@H]1C(=O)O[C@H](c3ccccc3)[C@H](c3ccccc3)N1[C@@H]2c1ccccc1OCCO	-0.483

---

Target: Albumin (Bos taurus) (UniProt P02769)
Sequence (P02769 whole entry, looked up): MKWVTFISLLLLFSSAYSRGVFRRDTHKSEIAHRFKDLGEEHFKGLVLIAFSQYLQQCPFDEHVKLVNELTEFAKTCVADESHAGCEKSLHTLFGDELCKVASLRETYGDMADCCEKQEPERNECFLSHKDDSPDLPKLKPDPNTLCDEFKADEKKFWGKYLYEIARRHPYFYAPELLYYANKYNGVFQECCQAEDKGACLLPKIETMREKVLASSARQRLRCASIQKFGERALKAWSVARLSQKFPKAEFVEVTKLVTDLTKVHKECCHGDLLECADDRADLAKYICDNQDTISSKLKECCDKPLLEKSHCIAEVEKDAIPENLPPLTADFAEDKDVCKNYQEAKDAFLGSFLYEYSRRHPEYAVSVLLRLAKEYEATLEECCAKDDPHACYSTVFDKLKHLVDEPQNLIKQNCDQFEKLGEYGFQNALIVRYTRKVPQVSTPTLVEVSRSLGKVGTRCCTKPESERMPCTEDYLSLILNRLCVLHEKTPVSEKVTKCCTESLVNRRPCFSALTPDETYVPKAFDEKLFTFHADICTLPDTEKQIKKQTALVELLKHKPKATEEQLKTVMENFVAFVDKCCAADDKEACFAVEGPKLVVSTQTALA
Assay Remarks: bovine serum albumin binders on microarray, profiling panel, artefact control for SMM control protein annotation, biochemical, small-molecule microarray, Alexa647 label, 635/667 nm fluorescence (AID 1118);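 further: score merges 667 nm emission intensity and signal-to-noise per printed compound spot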
Condition Info: BSA-A647 binding, fluorescence 635 nm, higher = more signal
Reported Metric: composite z-score

Molecule	Target	Reading
O=C1C2C=CC(C(O)c3ccc(F)cc3)N(Nc3ccccc3F)C2C(=O)N1c1ccccc1 (stereo not drawn)	Albumin (Bos taurus) (UniProt P02769)	0.983
O=C1c2ccccc2[C@](Cc2ccccc2I)(C(=O)NC2CC2)[C@H](c2ccc(CO)cc2)N1Cc1ccccc1	Albumin (Bos taurus) (UniProt P02769)	-0.213
CCCN1C(=O)[C@]2(CCS(=O)(=O)c3ccccc3)N=C(c3ccc(OCCCO)cc3)O[C@@H]2c2ccccc21	Albumin (Bos taurus) (UniProt P02769)	0.414
CC1(C)[C@@H]2CC(C(O)C3C=CC4C(=O)N(c5ccccc5)C(=O)C4N3Nc3ccccc3)=C[C@H]1C2 (stereo partly drawn)	Albumin (Bos taurus) (UniProt P02769)	0.566
O=C1[C@H]2C=C(Br)[C@H](C[C@@H]2c2ccccc2)[C@@]12CO2	Albumin (Bos taurus) (UniProt P02769)	-0.6
CC(CO)N1C(=O)[C@@H]2C3C(=O)OCCC/C=C\[C@H]3OC23C=CCN(c2ccc4ccccc4c2)C(=O)[C@@H]13 (stereo partly drawn)	Albumin (Bos taurus) (UniProt P02769)	0.611
CCOC(=O)C1=CCC(c2ccc(C)cc2)N(S(=O)(=O)c2ccc(C)cc2)C1 (stereo not drawn)	Albumin (Bos taurus) (UniProt P02769)	0.0328
O=C(O)[C@@]1(CCS(=O)(=O)c2ccccc2)COC(c2ccc(OCCCO)cc2)=N1	Albumin (Bos taurus) (UniProt P02769)	-0.344

---

Assay Remarks: HepG2 liver cancer cell viability effects, profiling panel, resazurin fluorescence, 24 h, PK04 Diversity Set (AID 1172); further: test concentration not given here
Condition Info: higher = more signal
# z-score per record follows
Reported Metric: z-score

Molecule	Reported Metric	Reading
COc1cc2c(cc1OC)CN(C(=O)[C@H]1[C@@H]3C(=O)O[C@@H](c4ccccc4)[C@@H](c4ccccc4)N3[C@@H](c3ccc(O)cc3)[C@]13C(=O)Nc1ccc(C#CCNC(N)=O)cc13)CC2	z-score	0.543
CN(C)C(=O)[C@]1(Cc2ccccc2N=[N+]=[N-])N=C(c2ccc(OCCCO)cc2)O[C@@H]1c1ccccc1	z-score	0.0707
C=CC[C@@]1(C(=O)N(C)C)N=C(c2ccc(OCCCO)cc2)O[C@@H]1c1ccccc1N=[N+]=[N-]	z-score	-0.614
O=C(C1N=C(c2ccc(OCCCO)cc2)N(c2ccccc2)O1)N1CCOCC1 (stereo not given)	z-score	0.55
C[N+](C)(C)CCCC[C@@H]1NC(=O)[C@@H]2C[C@H](C(=O)NCCCCCN)[C@H](c3cccc(OCCO)c3)N2C1=O	z-score	-0.85

---

Target: NADPH oxidase 4 (Homo sapiens) (UniProt Q9NPH5)
Sequence (Q9NPH5 whole entry, looked up): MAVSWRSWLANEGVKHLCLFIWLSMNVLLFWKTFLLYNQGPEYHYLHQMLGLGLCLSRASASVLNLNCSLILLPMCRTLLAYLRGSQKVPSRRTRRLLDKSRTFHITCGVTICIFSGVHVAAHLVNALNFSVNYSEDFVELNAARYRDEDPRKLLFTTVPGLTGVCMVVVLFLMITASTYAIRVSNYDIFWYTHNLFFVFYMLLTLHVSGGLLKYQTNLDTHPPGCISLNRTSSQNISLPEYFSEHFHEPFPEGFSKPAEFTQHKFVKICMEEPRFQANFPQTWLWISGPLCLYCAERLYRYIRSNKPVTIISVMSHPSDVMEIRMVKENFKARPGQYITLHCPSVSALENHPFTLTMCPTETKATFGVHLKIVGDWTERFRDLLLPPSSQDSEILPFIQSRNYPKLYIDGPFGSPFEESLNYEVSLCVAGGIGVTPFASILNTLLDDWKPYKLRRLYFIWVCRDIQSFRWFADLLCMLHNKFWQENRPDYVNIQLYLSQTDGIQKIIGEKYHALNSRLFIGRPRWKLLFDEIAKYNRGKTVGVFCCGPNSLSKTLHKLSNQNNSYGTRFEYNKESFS
Assay Remarks: NOX4-dependent H2O2 signal modulators, primary screen, NOX inhibitor project, cell-based, HEK293-NOX4, tetracycline-induced, Amplex Red fluorescence (AID 1160)
Condition Info: 45 min, higher = more signal, called active from +8 up or from −8 down
# maps each entry to its z-score

Molecule	z-score
CCCCN1CC=CC23O[C@@H]4/C=C\CCC(C)OC(=O)C4[C@H]2C(=O)N(CCCCCO)[C@@H]3C1=O (stereo partly specified)	-0.022
CC(C)N1C(=O)[C@@]2(Cc3ccccc31)c1ccccc1C(=O)N(C1CCCCC1)[C@H]2c1ccc(CO)cc1	0.217
COCCOC(=O)N1C(=O)[C@@]2(c3cc(C#Cc4ccc(OC)cc4)ccc31)[C@H](c1ccc(O)cc1)N1[C@H](c3ccccc3)[C@H](c3ccccc3)OC(=O)[C@H]1[C@@H]2C(=O)NC[C@H](O)c1ccccc1	-1.05
CN(C)CCCCCCNC(=O)[C@@H]1C[C@@H]2C(=O)N[C@@H](CCCCN)C(=O)N2[C@@H]1c1cccc(OCCO)c1	0.7
CN1C(=O)C2C=CC(C(O)c3ccc(I)cc3)N(N3CCCCC3)C2C1=O (stereo unspecified)	-2.14
C=CCC(OC(C)=O)[C@@H]1[C@@H](N(Cc2ccc(-c3cccc(C(F)(F)F)c3)o2)C(=O)Cc2ccc(F)cc2)c2cc(OCCCO)ccc2N1C(=O)Cc1ccc(OC)cc1 (stereo partly specified)	0.269
C=CC[C@]1(C(=O)NCCCOC)N=C(c2ccc(OCCCO)cc2)O[C@H]1c1ccccc1N=[N+]=[N-]	1.33
C=C(CCCC)C(=O)CC[C@H](OC(C)=O)c1cccc(OCCO)c1	-0.766
O=C1NC(=O)C2C1C=CC(C(O)C(c1ccccc1)c1ccccc1)N2Nc1ccc(Cl)cc1Cl (stereo unspecified)	-5.03
CCOC(=O)C[C@H]1[C@H](OC(=O)c2cc3ccccc3oc2=O)[C@@H](NC(=O)C2CCCCC2)c2cc(OCCCO)ccc2N1C(=O)c1ccccc1	0.609
CN(C)CCCC[C@@H]1NC(=O)[C@H]2C[C@@H](C(=O)NCCCCCNC(=O)CS)[C@@H](c3cccc(OCCO)c3)N2C1=O	0.749

---

Assay Remarks: small-molecule binders of probe aNOTCH3, primary screen, biochemical, small-molecule microarray, 635/667 nm fluorescence (AID 1120);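 further: probe is a biotin-tagged antibody raised against NOTCH3 rather than NOTCH3 protein; score merges spot fluorescence near 667 nm with spot signal to noise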
Condition Info: higher = more signal
Decision: composite z-score >= -0.001 yields 1, all other cases yield 0.

Compound	Category
C=CCNC(=O)[C@@H]1[C@H]2C(=O)O[C@H](c3ccccc3)[C@H](c3ccccc3)N2[C@H](c2ccc(OCCO)cc2)[C@@]12C(=O)Nc1ccc(C#CCCO)cc12	1
C=CCC(OC(C)=O)[C@@H]1[C@@H](N(Cc2ccc(-c3cccc(C(F)(F)F)c3)o2)C(=O)c2ccc(-c3ccccc3)cc2)c2cc(OCCCO)ccc2N1C(=O)c1ccc(-c2ccccc2)cc1 (stereo partly drawn)	0
CN(C)CCCNC(=O)[C@@]1(C)c2ccccc2C(=O)N(Cc2cc(F)cc(C(F)(F)F)c2)[C@H]1c1ccc(CO)cc1	0
CN1C(=O)[C@]2(Cc3ccccc3)N=C(c3ccc(OCCCO)cc3)O[C@@H]2c2ccccc21	1
O=C1O[C@H](c2ccccc2)[C@H](c2ccccc2)N2[C@H]1[C@@H](C(=O)O)[C@]1(C(=O)Nc3ccc(C#CCCO)cc31)[C@H]2c1ccc(O)cc1	0
O=C(C1N=C(c2ccc(OCCCO)cc2)N(c2ccccc2)O1)N1CCOCC1 (stereo not drawn)	1
COC(=O)[C@@]1(Cc2ccccc2)[C@H]2c3cc(C(=O)N(C)C)n(CCSCCO)c3C[C@H]2CN1C(=O)c1ccccc1	1
COC(=O)[C@@]1(Cc2ccc(OC)cc2)[C@H]2c3cc(C(=O)N4CCCC4)n(Cc4ccccc4)c3C[C@H]2CN1C(=O)c1ccccc1	1
CC(C)(C)OC(=O)CC[C@@]1(C(=O)NCCN2CCOCC2)N=C(c2ccc(OCCCO)cc2)O[C@@H]1c1ccccc1N=[N+]=[N-]	1
COCCCN1C(=O)[C@@]2(Cc3ccccc31)c1ccccc1C(=O)N(Cc1ccccc1C(F)(F)F)[C@H]2c1ccc(CO)cc1	0
CC(C)(C)OC(=O)CC[C@@]1(C(=O)NCC(O)CO)N=C(c2ccc(OCCCO)cc2)O[C@@H]1c1ccccc1N=[N+]=[N-] (stereo partly drawn)	1
C=CC[C@]1(C(=O)N2CCCCC2)N=C(c2ccc(OCCCO)cc2)O[C@H]1c1ccccc1	1
CCOC(=O)C[C@H]1[C@H](OC(=O)c2cc3ccccc3oc2=O)[C@@H](NC(=O)Cc2ccc(OC)cc2)c2cc(OCCCO)ccc2N1C(=O)c1ccccc1	0
C=C(COC)/C(=C/C[C@@H](OC(C)=O)c1ccc(CO)o1)c1cnc2ccccc2c1	1
COc1ccc(C(O)C2C=CC3C(=O)NC(=O)C3N2Nc2ccccn2)cc1 (stereo not drawn)	1
O=C1[C@H]2C=C(Br)[C@H](C[C@@H]2c2ccccc2)[C@@]12CO2	1
C=CCOC(=O)[C@H]1[C@@H]2C(=O)O[C@@H](c3ccccc3)[C@@H](c3ccccc3)N2[C@@H](c2ccc(OCCOC(=O)[C@H]3C[C@H]4C(=O)N5CCC[C@H]5C(=O)N4[C@H]3c3ccc(O)cc3)cc2)[C@]12C(=O)Nc1ccccc12	1
COC(=O)[C@@]1(Cc2ccc(F)cc2)[C@H]2c3cc(C(=O)N(C)C)n(Cc4ccc(S(C)(=O)=O)cc4)c3C[C@H]2CN1C(=O)c1ccccc1	0
Cc1ccc(C(C)CC(O)C2C=CC3C(=O)N(c4ccccc4)C(=O)C3N2Nc2ccc([N+](=O)[O-])cc2)o1 (stereo not drawn)	1
COc1ccc([Si](C)(C)[C@H]2[C@H](CC(=O)N3Cc4ccccc4C[C@H]3CO)O[C@@]3(C(=O)N(Cc4ccc(N5CCC5=O)cc4)c4ccccc43)[C@@H]2C)cc1	0
C=CCC(OC(C)=O)[C@@H]1[C@@H](N(Cc2ccc(-c3ccccc3)cc2)C(=O)Cc2ccc(F)cc2)c2cc(OCCCO)ccc2N1C(=O)c1ccc(-c2ccccc2)cc1 (stereo partly drawn)	1
CC(C)N1C(=O)[C@@]2(Cc3ccccc31)c1ccccc1C(=O)N(C1CCCCC1)[C@H]2c1ccc(CO)cc1	1
O=C1NC(=O)C2C1C=CC(C(O)C(c1ccccc1)c1ccccc1)N2Nc1ccc(Cl)cc1Cl (stereo not drawn)	1
CN(C)CCCCCCNC(=O)[C@@H]1C[C@@H]2C(=O)N[C@@H](CCCCN)C(=O)N2[C@@H]1c1cccc(OCCO)c1	1
COc1cc(OC)c(C(O)C2C=CC3C(=O)NC(=O)C3N2Nc2ccc(Cl)cc2Cl)cc1Br (stereo not drawn)	1
CCN(CC)c1ccc(N2CC=CC34O[C@@H]5/C=C\CCCOC(=O)C5[C@H]3C(=O)N(CCO)[C@@H]4C2=O)cc1 (stereo partly drawn)	0
CCOC(=O)C[C@H]1[C@H](OC(=O)c2ccc(C(=O)c3ccccc3)cc2)[C@@H](NC(=O)c2ccc(-c3ccccc3)cc2)c2cc(OCCCO)ccc2N1C(=O)c1ccccc1	0
Cc1ccc(S[C@]2(C(=O)NC3CC3)CC(=O)N(C3Cc4ccccc4C3)[C@@H]2c2ccc(CO)cc2)cc1	0
